These entries and their values trace back to patent US20170306005A1.

- target-or-test-system: T1, Human FGB-rCd4
- T1 construct: Not the same construct as m1, which has the FBG at the C terminus; also called human TNC FBG-rCD4; human tenascin-C FBG-rCd4-His (FBG at the N terminus of the rat Cd4 tag); not shown: rat Cd4 (domains 3 and 4) tag, the C-terminal His6 tag and the vector-derived junction residues of pBIOCAM4
- T1 chain: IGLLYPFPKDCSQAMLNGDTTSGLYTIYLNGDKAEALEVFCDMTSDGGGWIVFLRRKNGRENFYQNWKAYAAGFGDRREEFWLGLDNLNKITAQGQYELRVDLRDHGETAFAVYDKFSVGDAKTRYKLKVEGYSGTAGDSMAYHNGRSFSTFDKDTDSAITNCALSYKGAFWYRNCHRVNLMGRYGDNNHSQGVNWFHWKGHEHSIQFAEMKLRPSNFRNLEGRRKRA
- protocol: ELISA (DELFIA), antigen coated on the well, purified Fab at 50 nM, detected with anti-kappa or anti-lambda mAb and Europium-conjugated anti-mouse mAb
assay-metric: binding result

binder="Fab B12 (Fab, V domains shown, monomeric Fab) VH: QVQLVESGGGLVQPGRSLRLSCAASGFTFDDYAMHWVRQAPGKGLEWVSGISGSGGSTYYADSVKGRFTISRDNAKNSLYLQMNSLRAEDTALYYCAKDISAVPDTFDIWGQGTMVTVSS VL: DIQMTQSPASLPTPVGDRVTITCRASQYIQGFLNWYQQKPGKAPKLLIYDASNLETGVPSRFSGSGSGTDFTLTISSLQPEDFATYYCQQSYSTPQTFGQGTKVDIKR" assay_metric="binding result" result=binds
